Tested on: Candida albicans
Experiment: Antifungal activity against Candida albicans ATCC 76615 assessed as fungal growth inhibition incubated for 24 hrs by two-fold serial dilution method
Assay type: functional
# MIC per record follows
metric-name: MIC

1) O=C(/C=C/C(=O)Nc1ccc2c(c1)C(=O)NC1(CCCC1)N2)Nc1ccc(Br)cc1; 128 µg/mL
2) O=C(/C=C/C(=O)Nc1ccccc1Cl)Nc1ccc2c(c1)C(=O)NC1(CCOC1)N2 (centres undefined); 128 µg/mL
3) O=C(/C=C/C(=O)Nc1ccccc1F)Nc1ccc2c(c1)C(=O)NC1(CCSC1)N2 (centres undefined); 64 µg/mL
4) O=C(/C=C/C(=O)Nc1ccccc1Cl)Nc1ccc2c(c1)C(=O)NC1(CCSC1)N2 (centres undefined); 32 µg/mL
5) O=C(/C=C/C(=O)Nc1ccc2c(c1)C(=O)NC1(CCSC1)N2)Nc1ccc(F)cc1 (centres undefined); 64 µg/mL
6) O=C(/C=C/C(=O)Nc1ccc2c(c1)C(=O)NC1(CCSC1)N2)Nc1ccc(Br)cc1 (centres undefined); 16 µg/mL
7) O=C(/C=C/C(=O)Nc1ccc2c(c1)C(=O)NC1(CCSC1)N2)Nc1cccc(Cl)c1 (centres undefined); 32 µg/mL
8) O=C(/C=C/C(=O)Nc1ccc2c(c1)C(=O)NC1(CCSC1)N2)Nc1cccc(C(F)(F)F)c1 (centres undefined); 128 µg/mL
9) Cc1cccc(NC(=O)/C=C/C(=O)Nc2ccc3c(c2)C(=O)NC2(CCSC2)N3)c1 (centres undefined); 64 µg/mL

* * *

System: Aspergillus flavus
Test: Antifungal activity against Fluconazole-resistant Aspergillus flavus ATCC 16870R assessed as fungal growth inhibition
Format: functional
# MIC per record follows
metric-name: MIC (µg/mL)

1) O=C(/C=C/C(=O)Nc1ccccc1[N+](=O)[O-])Nc1ccc2c(c1)C(=O)NC1(CCSC1)N2 (stereo unspecified); 16
2) O=C(/C=C/C(=O)Nc1ccc2c(c1)C(=O)NC1(CCSC1)N2)Nc1ccc([N+](=O)[O-])cc1 (stereo unspecified); 8
3) Cc1ccc([N+](=O)[O-])cc1NC(=O)/C=C/C(=O)Nc1ccc2c(c1)C(=O)NC1(CCSC1)N2 (stereo unspecified); 32
4) OC(Cn1cncn1)(Cn1cncn1)c1ccc(F)cc1F; 256
5) O=C(/C=C/C(=O)Nc1ccc2c(c1)C(=O)NC1(CCSC1)N2)Nc1ccc(Br)cc1 (stereo unspecified); 32
6) O=C(/C=C/C(=O)Nc1ccc(Cl)cc1Cl)Nc1ccc2c(c1)C(=O)NC1(CCSC1)N2 (stereo unspecified); 32

* * *

Tested on: Aspergillus fumigatus
Experiment: Synergistic antifungal activity against Aspergillus fumigatus GIMCC 3.19 assessed as fluconazole MIC incubated for 24 hrs in by checkerboard broth microdilution method
Assay type: functional
metric-name: MIC

1. Cc1ccc([N+](=O)[O-])cc1NC(=O)/C=C/C(=O)Nc1ccc2c(c1)C(=O)NC1(CCSC1)N2 (stereo not given); 1 µg/mL
2. O=C(/C=C/C(=O)Nc1ccc2c(c1)C(=O)NC1(CCSC1)N2)Nc1ccc(Br)cc1 (stereo not given); 1 µg/mL
3. O=C(/C=C/C(=O)Nc1ccc2c(c1)C(=O)NC1(CCSC1)N2)Nc1ccc([N+](=O)[O-])cc1 (stereo not given); 4 µg/mL
4. O=C(/C=C/C(=O)Nc1ccccc1[N+](=O)[O-])Nc1ccc2c(c1)C(=O)NC1(CCSC1)N2 (stereo not given); 1 µg/mL
5. O=C(/C=C/C(=O)Nc1ccc(Cl)cc1Cl)Nc1ccc2c(c1)C(=O)NC1(CCSC1)N2 (stereo not given); 2 µg/mL

* * *

Tested on: Aspergillus fumigatus
Experiment: Antifungal activity against Aspergillus fumigatus GIMCC 3.19 assessed as inhibition of cell wall synthesis incubated for 24 hrs in absence of sorbitol
Format: functional
metric-name: MIC (µg/mL)

1. O=C(/C=C/C(=O)Nc1ccccc1[N+](=O)[O-])Nc1ccc2c(c1)C(=O)NC1(CCSC1)N2 (stereo unspecified); 4
2. Cc1ccc([N+](=O)[O-])cc1NC(=O)/C=C/C(=O)Nc1ccc2c(c1)C(=O)NC1(CCSC1)N2 (stereo unspecified); 16
3. NC(=O)OC[C@H](O)[C@@H](O)[C@H](N)C(=O)N[C@H](C(=O)O)[C@H]1O[C@@H](n2cc(CO)c(=O)[nH]c2=O)[C@H](O)[C@@H]1O [POLYOXIN B]; 16
4. O=C(/C=C/C(=O)Nc1ccc2c(c1)C(=O)NC1(CCSC1)N2)Nc1ccc([N+](=O)[O-])cc1 (stereo unspecified); 8
5. O=C(/C=C/C(=O)Nc1ccc(Cl)cc1Cl)Nc1ccc2c(c1)C(=O)NC1(CCSC1)N2 (stereo unspecified); 16
6. O=C(/C=C/C(=O)Nc1ccc2c(c1)C(=O)NC1(CCSC1)N2)Nc1ccc(Br)cc1 (stereo unspecified); 16

* * *

Assay: Cytotoxicity against human A549 cells assessed as cell viability at 64 ug/ml incubated for 24 hrs by CCK-8 assay relative to control
Type: toxicity, cell-based
Conditions: at 64 µg/mL, read-out: Activity
metric-name: viability at 24 h, 64 ug/ml

1) O=C(/C=C/C(=O)Nc1ccc2c(c1)C(=O)NC1(CCSC1)N2)Nc1ccc([N+](=O)[O-])cc1 (configuration not stated); 67.1%
2) NC(=O)OC[C@H](O)[C@@H](O)[C@H](N)C(=O)N[C@H](C(=O)O)[C@H]1O[C@@H](n2cc(CO)c(=O)[nH]c2=O)[C@H](O)[C@@H]1O; 91.2%

* * *

# fractional inhibitory concentration index (FICI) per record follows
Tested on: Candida albicans
Assay: Additive antifungal activity against Candida albicans ATCC 76615 assessed as fractional inhibitory concentration index incubated for 24 hrs in presence of fluconazole by checkerboard broth microdilution method
Format: functional
metric-name: fractional inhibitory concentration index (FICI)

1. O=C(/C=C/C(=O)Nc1ccccc1[N+](=O)[O-])Nc1ccc2c(c1)C(=O)NC1(CCSC1)N2 (centres undefined); 1.125
2. O=C(/C=C/C(=O)Nc1ccc(Cl)cc1Cl)Nc1ccc2c(c1)C(=O)NC1(CCSC1)N2 (centres undefined); 1.5
3. Cc1ccc([N+](=O)[O-])cc1NC(=O)/C=C/C(=O)Nc1ccc2c(c1)C(=O)NC1(CCSC1)N2 (centres undefined); 1.5
4. O=C(/C=C/C(=O)Nc1ccc2c(c1)C(=O)NC1(CCSC1)N2)Nc1ccc(Br)cc1 (centres undefined); 1.5

* * *

# inhibition per record follows
Tested on: Candida tropicalis
Assay: Inhibition of Candida tropicalis ATCC 750 chitin synthase using […] as substrate at 300 ug/ml incubated for 1 hr by absorbance based assay relative to control
Details: dose 300.0 µg/ml
metric-name: inhibition (%)

1. O=C(/C=C/C(=O)Nc1ccc2c(c1)C(=O)NC1(CCSC1)N2)Nc1ccc(F)cc1 (stereo not drawn); 54.6
2. Cc1cccc(NC(=O)/C=C/C(=O)Nc2ccc3c(c2)C(=O)NC2(CCSC2)N3)c1 (stereo not drawn); 47.2
3. Cc1ccc(NC(=O)/C=C/C(=O)Nc2ccc3c(c2)C(=O)NC2(CCSC2)N3)cc1 (stereo not drawn); 48.2

* * *

# MIC per record follows
Test system: Aspergillus flavus
Test: Synergistic antifungal activity against Aspergillus flavus ATCC 16870 assessed as polyoxin B MIC incubated for 24 hrs by checkerboard broth microdilution method
Assay type: functional
metric-name: MIC

1. O=C(/C=C/C(=O)Nc1ccccc1[N+](=O)[O-])Nc1ccc2c(c1)C(=O)NC1(CCSC1)N2 (stereo not given); 16 µg/mL
2. O=C(/C=C/C(=O)Nc1ccc2c(c1)C(=O)NC1(CCSC1)N2)Nc1ccc([N+](=O)[O-])cc1 (stereo not given); 2 µg/mL
3. O=C(/C=C/C(=O)Nc1ccc2c(c1)C(=O)NC1(CCSC1)N2)Nc1ccc(Br)cc1 (stereo not given); 2 µg/mL
4. Cc1ccc([N+](=O)[O-])cc1NC(=O)/C=C/C(=O)Nc1ccc2c(c1)C(=O)NC1(CCSC1)N2 (stereo not given); 2 µg/mL
5. O=C(/C=C/C(=O)Nc1ccc(Cl)cc1Cl)Nc1ccc2c(c1)C(=O)NC1(CCSC1)N2 (stereo not given); 16 µg/mL

* * *

Test system: Candida albicans
Experiment: Synergistic antifungal activity against Candida albicans ATCC 76615 assessed as polyoxin B MIC incubated for 24 hrs by checkerboard broth microdilution method
Assay type: functional
# MIC per record follows
metric-name: MIC (mg/L)

1) Cc1ccc([N+](=O)[O-])cc1NC(=O)/C=C/C(=O)Nc1ccc2c(c1)C(=O)NC1(CCSC1)N2 (stereo not given); 2
2) O=C(/C=C/C(=O)Nc1ccc(Cl)cc1Cl)Nc1ccc2c(c1)C(=O)NC1(CCSC1)N2 (stereo not given); 2
3) O=C(/C=C/C(=O)Nc1ccccc1[N+](=O)[O-])Nc1ccc2c(c1)C(=O)NC1(CCSC1)N2 (stereo not given); 4
4) O=C(/C=C/C(=O)Nc1ccc2c(c1)C(=O)NC1(CCSC1)N2)Nc1ccc(Br)cc1 (stereo not given); 2
5) O=C(/C=C/C(=O)Nc1ccc2c(c1)C(=O)NC1(CCSC1)N2)Nc1ccc([N+](=O)[O-])cc1 (stereo not given); 2
